test system: MiaPaCa-2 cells; assay: Clonogenic (colony formation) assay; format: cell-based, human; settings: read-out: IC50, colony formation / survival fraction; MiaPaCa-2, 24 h treatment
Endpoint Name: IC50 (µM)
Numbers only; they are read as µM.

Compound: Br.N=C(N)NC(=N)NCCCCCCCCCC[P+](c1ccccc1)(c1ccccc1)c1ccccc1
IC50, µM: 1.1

Here is the next item to consider.
Return reported IC50; argument: CN(C)C(=N)N=C(N)N [Metformin, metformin, reference compound]
1300

====

Entries annotated with measured Kidney BUN
details: mouse, in vivo, 1 mg/kg
Form entry: enter the amount, then its unit.

Compound: Br.N=C(N)NC(=N)NCCCCCCCCCC[P+](c1ccccc1)(c1ccccc1)c1ccccc1
Endpoint Name: Kidney BUN
Experimental Result: 27 mg/dL

Here is the next item to consider.
Return reported Kidney BUN; argument: CN(C)C(=N)N=C(N)N [Metformin, metformin, reference compound]
30 mg/dL
